Recorded values, source the supplement of paper PMC10567573.

protocol.text: protein stability index of a GFP-peptide fusion (GPS, HEK-293T) (PSI 1-6); higher = more stable;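 note: 24-mer peptide tiles fused after GFP, lentivirally expressed, FACS-sorted into six equal bins by GFP/DsRed ratio, decoded by Illumina sequencing, PSI is the read-weighted mean bin number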
test.settings: treatment: DMSO; c terminus: a fixed tail appended
measure.name: protein stability index

> print(dat)
                       ordered.residues             measure.name  value
 1     EKLITWLNKELNENQLVRKQDVLG [SASS6]  protein stability index   2.12
 2   EIDTPDKFGRTCLHAAAAGGNVEC [ANKRD44]  protein stability index   4.24
 3    RRRPRQKEAGLSQSHDDLSNATAT [C2CD2L]  protein stability index   5.23
 4    YRQDDPSYRSFHSGGYGQDALGMD [CTNNB1]  protein stability index   3.89
 5     LFAPTLIYRDSYPRNPTVRWGYVA [SOAT1]  protein stability index   2.44
 6   SWLDVQVSNTYVKQKTSAALSTMG [TPD52L3]  protein stability index   2.79
 7  GLRRLGLHRTEGELQKIVQAGDKD [SLC25A25]  protein stability index   4.45
 8     HCRKCGKAVCGKCSSKRSSIPLMG [WDFY2]  protein stability index   3.94
 9     GSAGRLLAVGTDLYGQRNSAPEQE [GFOD1]  protein stability index   4.61
10   MAGLQRLASHLPVGVMLPHNTTEA [ZC2HC1C]  protein stability index    3.5

Challenge: Give protein stability index for VPRAGPLTVNTEAQQLLREFEEAT [FOXJ1]
Response given: 4.96

Challenge: Give protein stability index for AALSERGQAEEELIKAKSQARLEE [LRRC45]
Response given: 5.28

Challenge: Give protein stability index for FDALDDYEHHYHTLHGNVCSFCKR [ZNF511]
Response given: 3.83
